# System: HT-29
# Assay Details: Tested for cytotoxicity against HT-29 (wt)cells
# Format: functional, cell-based
# Condition Description: Homo sapiens
Quantity Measured: IC50 (nM)
One number for each entry, in nM.

>>> numeric_value("CC[C@]1(O)C[C@H]2CN(CCc3c([nH]c4ccccc34)[C@@](C(=O)OC)(c3cc4c(cc3OC)N(C=O)[C@H]3[C@@](O)(C(=O)OC)[C@H](OC(C)=O)[C@]5(CC)C=CCN6CC[C@]43[C@@H]65)C2)C1 [VINCRISTINE]")
1

Here is another compound to look at.
Record lookup: for HT-29, what IC50 belongs to "C/C=C/C(=O)OCC1=CCCCC1=O" ? 800
